Would you kindly list % release after heating (55° C.) at time (h) 24 h for each of these compounds?
- ASSAY_PROTOCOL: Heat-induced release of drug surrogate (alcohol 11 or amine 12) from linkers in methanol, HPLC quantification
- Type: physicochemical
- EXPERIMENTAL_SETUP: release of alcohol 11; methanol ca. 0.01 M, 55° C., 24 h; mean ± SD, n = 3
Unit % implied. Number only.

Suppose we examine the compound C=CCNCCCOC(=O)OCCc1c2ccccc2cc2ccccc12 ; what % release after heating (55° C.) at time (h) 24 h value has been reported?
62.1

Suppose we examine the compound C=CCNCCCC(=O)OCCc1c2ccccc2cc2ccccc12 ; what % release after heating (55° C.) at time (h) 24 h value has been reported?
94.0

Suppose we examine the compound C=CCNCCCCCC(=O)OCCc1c2ccccc2cc2ccccc12 ; what % release after heating (55° C.) at time (h) 24 h value has been reported?
10.4

Suppose we examine the compound C=CCNCCC(C)(C)CCC(=O)OCCc1c2ccccc2cc2ccccc12 ; what % release after heating (55° C.) at time (h) 24 h value has been reported?
24.7

Suppose we examine the compound C=CCNCCOC(=O)OCCc1c2ccccc2cc2ccccc12 ; what % release after heating (55° C.) at time (h) 24 h value has been reported?
68.9

Suppose we examine the compound C=CCNCCC(C)(C)COC(=O)OCCc1c2ccccc2cc2ccccc12 ; what % release after heating (55° C.) at time (h) 24 h value has been reported?
36.6

Suppose we examine the compound C=CCNCCCCC(=O)OCCc1c2ccccc2cc2ccccc12 ; what % release after heating (55° C.) at time (h) 24 h value has been reported?
75.7

###

- ASSAY_PROTOCOL: Heat-induced release of drug surrogate (alcohol 11 or amine 12) from linkers in methanol, HPLC quantification
- Assay type: physicochemical
- EXPERIMENTAL_SETUP: release of alcohol 11; methanol ca. 0.01 M, 55° C., 1 h; mean ± SD, n = 3
Use 20% as the dividing line for % release after heating (55° C.) at time (h) 1, with the line itself on the MET side and lower values as NOT MET.

// inclusive: % release after heating (55° C.) at time (h) 1 at least 20%? input: C=CCNCCCCCC(=O)OCCc1c2ccccc2cc2ccccc12
NOT MET

// inclusive: % release after heating (55° C.) at time (h) 1 at least 20%? input: C=CCNCCCCC(=O)OCCc1c2ccccc2cc2ccccc12
MET

// inclusive: % release after heating (55° C.) at time (h) 1 at least 20%? input: C=CCNCCC(C)(C)COC(=O)OCCc1c2ccccc2cc2ccccc12
NOT MET

// inclusive: % release after heating (55° C.) at time (h) 1 at least 20%? input: C=CCNCCCC(=O)OCCc1c2ccccc2cc2ccccc12
MET

// inclusive: % release after heating (55° C.) at time (h) 1 at least 20%? input: C=CCNCCC(C)(C)CCC(=O)OCCc1c2ccccc2cc2ccccc12
NOT MET

// inclusive: % release after heating (55° C.) at time (h) 1 at least 20%? input: C=CCNCCCOC(=O)OCCc1c2ccccc2cc2ccccc12
NOT MET

// inclusive: % release after heating (55° C.) at time (h) 1 at least 20%? input: C=CCNCCOC(=O)OCCc1c2ccccc2cc2ccccc12
MET
